test system: BCRP; assay: Efflux ratio of apparent permeability across basolateral to apical side to apical to basolateral side in human Caco-2 expressing BCRP cells; assay type: ADME, cell-based
resultType: efflux ratio
Reply briefly: the number, and no unit.

**Query** Provide only the value of recorded efflux ratio for O[C@@H]1CCCC[C@H]1CNc1cc(Br)cc2[nH]ncc12
**Result** 0.56

* * *

test: Half life in Sprague-Dawley rat plasma at 100 mg/kg, iv by HPLC analysis; type: ADME, organism-based
resultType: half-life (h)
Number only, in h; omit the unit.

**Query** Provide only the value of recorded half-life for O[C@@H]1CCCC[C@H]1CNc1cc(Br)cc2[nH]ncc12
**Result** 10.1

Hello, the source for this data is ChEMBL document CHEMBL5214905, in case you need it.
